- Tested on: MYB mRNA
- assay-summary: Splicing RT-qPCR assay, MYB canonical (CJ) and alternative (AJ) junction mRNA
- Format: cell-based
- test-settings: Homo sapiens, decrease in canonical junction mRNA, A673 or K562 cells, 24 hours
- Method: Compounds described herein were used to modulate RNA transcript abundance in cells. The expression of a target mRNA was measured by detecting the formation of an exon-exon junction in the canonical transcript (CJ). A compound mediated exon-inclusion event was detected by observing an increase in formation of a new junction with an alternative exon (AJ). Real-time qPCR assays were used to detect these splicing switches and interrogate the potency of various compounds towards different target genes. […]
measurement-type: IC50

compound: COc1cnc2c(C(=O)Nc3cc(F)c4nc(C)cn4c3)ccc(N3C[C@@H](C)N[C@@H](C)C3)c2n1 [Compound 223]
IC50: < 100 nM

Below are 6 compounds. Give each one its IC50.
1. COc1ncc2c(N3C[C@@H](C)N[C@@H](C)C3)ccc(C(=O)Nc3cn4cc(C)nc4c(OC)n3)c2n1 [Compound 378]
2. Cc1cn2cc(NC(=O)c3ccc(N4CCNCC4)c4ccnnc34)nc(C)c2n1 [Compound 164, 2,2,2-trifluoroacetate]
3. Cc1cn2cc(NC(=O)c3ccc(N4C[C@H](C)NC5(CC5)C4)c4nccnc34)cc(F)c2n1 [Compound 377]
4. Cc1cn2cc(NC(=O)c3ccc(N4C5CNCC54)c4nccnc34)cc(F)c2n1 (stereo not shown) [Compound 262]
5. Cc1cn2cc(NC(=O)c3ccc(N4CCN5CCC[C@@H]5C4)c4ccnnc34)cc(F)c2n1 [Compound 153]
6. Cc1cnc2c(N3C[C@@H](C)N[C@@H](C)C3)ccc(C(=O)Nc3cc(F)c4nc(C)cn4c3)c2n1 [Compound 216]

Response:
["< 100 nM", "100 to 1000 nM", "< 100 nM", "100 to 1000 nM", "< 100 nM", "100 to 1000 nM"]

---

- Test system: HiBiT-tagged MYB protein
- assay-summary: HiBiT protein abundance assay, MYB (K562 HiBiT knock-in cells)
- Type: cell-based, human
- test-settings: 24 hours
For each of the compounds below, state its IC50.

Please review the entries below; each comes with its answer.
compound: Cc1cn2cc(NC(=O)c3ccc(N4C[C@@H](C)N[C@@H](C)C4)c4nccnc34)nc(Cl)c2n1
tested-target: HiBiT-tagged MYB protein
IC50: < 100 nM
--
compound: Cc1cn2cc(NC(=O)c3ccc(N4CCNCC4)c4ccnnc34)cc(Cl)c2n1
tested-target: HiBiT-tagged MYB protein
IC50: < 100 nM

I have 6 compounds here; please give me IC50 for each one.
1. Cc1ccc2c(N3CCC(N(C)C)CC3)ccc(C(=O)Nc3cc(F)c4nc(C)cn4c3)c2n1
2. Cc1cn2cc(NC(=O)c3ccc(N4CCN(CCF)C5(CC5)C4)c4nccnc34)cc(F)c2n1
3. C[C@@H]1CN(c2ccc(C(=O)Nc3ccc4nc(N(C)C)oc4c3)c3nccnc23)C[C@H](C)N1
4. Cc1cn2cc(NC(=O)c3ccc(N4CCNCC4)c4ccnnc34)c(C)cc2n1
5. Cc1cn2cc(NC(=O)c3ccc(N4CCNCC4)c4ccnnc34)cc(F)c2n1
6. Cc1nc2c(F)cc(NC(=O)c3ccc(N4CCNCC4)c4ccnnc34)cc2o1

Response:
1: < 100 nM; 2: 1000 to 10000 nM; 3: > 10000 nM; 4: 100 to 1000 nM; 5: < 100 nM; 6: < 100 nM

---

Kindly state IC50 for each of the entries shown.
- System: HiBiT-tagged MYB protein
- assay-summary: HiBiT protein abundance assay, MYB (K562 HiBiT knock-in cells)
- Type: cell-based, human
- test-settings: 24 hours

Consider the following illustrative entries.
molecule: Cc1cn2cc(NC(=O)c3ccc(N4CCN[C@H](CF)C4)c4nccnc34)cc(F)c2n1
IC50: 100 to 1000 nM

molecule: Cc1cn2cc(NC(=O)c3ccc(N4CCN[C@H](C5CC5)C4)c4nccnc34)cc(F)c2n1
IC50: < 100 nM

molecule: CCOc1cnc2c(N3C[C@@H](C)N[C@@H](C)C3)ccc(C(=O)Nc3cc(F)c4nc(C)cn4c3)c2n1
IC50: < 100 nM

molecule: Cc1cn2cc(NC(=O)c3ccc(N4CCNC(C)(CO)C4)c4nccnc34)cc(F)c2n1 (centres unmarked)
IC50: < 100 nM

molecule: CC[C@@H]1CN(c2ccc(C(=O)Nc3cc(F)c4nc(C)cn4c3)c3nnccc23)CCN1
IC50: < 100 nM

Each molecule below has a recorded value; state its IC50.
1. Cc1cn2cc(NC(=O)c3ccc(N4CCN(C)C5(CC5)C4)c4nccnc34)cc(F)c2n1
2. Cc1c(O)c(NC(=O)c2ccc(N3CCNCC3)c3ccnnc23)cc2cn(C)nc12
3. COc1cnc2c(N3CCNCC3)ccc(C(=O)Nc3cc(F)c4nc(C)cn4c3)c2n1

Response:
1: 100 to 1000 nM; 2: 1000 to 10000 nM; 3: < 100 nM

---

- System: K562 cells
- assay-summary: Cell Titer Glo 2.0 cell viability assay in K562 cells
- test-settings: 72 hours

compound: CNC1CCN(c2ccc(C(=O)Nc3cc(F)c4nc(C)cn4c3)c3nc(C)ccc23)C1 (stereo not shown) [Compound 196, 2,2,2-trifluoroacetate]
Viability: A (A represents <100 nM)

compound: Cc1cn2cc(NC(=O)c3ccc(C4CCNCC4)c4nccnc34)cc(F)c2n1 [Compound 371]
Viability: A (A represents <100 nM)

compound: COc1cnc2c(N3CC[C@@H](N(C)C)C3)ccc(C(=O)Nc3cc(F)c4nc(C)cn4c3)c2n1 [Compound 244]
Viability: A (A represents <100 nM)

---

- Tested on: HiBiT-tagged HTT protein
- assay-summary: HiBiT protein abundance assay, HTT (K562 HiBiT knock-in cells)
- Assay type: cell-based, human
- test-settings: 24 hours
Counter-ions that a name gives are not always drawn.
measurement-type: IC50

Some solved cases for reference:
compound: COc1nc2ccc(NC(=O)c3ccc(N4C[C@@H](C)N[C@@H](C)C4)c4nccnc34)cc2o1
IC50: > 10000 nM
//
compound: Cc1cn2cc(NC(=O)c3ccc(N4CCNC5(CC5)C4)c4nccnc34)cc(F)c2n1
IC50: 1000 to 10000 nM

Would you mind giving IC50 for every compound in the list below?
1. Cc1cn2cc(NC(=O)c3ccc(N4CCNCC4)c4nccnc34)cc(F)c2n1
2. Cc1cn2cc(NC(=O)c3ccc(N4CCN[C@H](CF)C4)c4nccnc34)cc(F)c2n1
3. Cc1cn2cc(NCc3ccc(N4CCNCC4)c4ccnnc34)cc(F)c2n1

Response:
100 to 1000 nM
1000 to 10000 nM
> 10000 nM

Hi team, please reply with IC50 for each item in this list.
1. Cc1cn2cc(NC(=O)c3ccc(N4C[C@@H](C)NC5(CC5)C4)c4nccnc34)cc(F)c2n1
2. Cc1cn2cc(NC(=O)c3ccc(N4C[C@H]5C[C@@H]4C5N(C)C)c4ccnnc34)cc(F)c2n1 (stereo partly drawn)

Response:
["1000 to 10000 nM", "> 10000 nM"]

I need IC50 for every entry listed below, if you could help.
1. Cc1cn2cc(NC(=O)c3ccc(N4CCC(N(C)C)CC4)c4nccnc34)cc(F)c2n1
2. COc1cnc2c(N3CCNCC3)ccc(C(=O)Nc3cc(F)c4nc(C)cn4c3)c2n1
3. Cc1cn2cc(NC(=O)c3ccc(N4C[C@@H](C)N[C@@H](C)C4)c4ncc(OC5CC5)nc34)cc(F)c2n1
4. Cc1cn2cc(NC(=O)c3ccc(N4CCN(C)[C@@H](C)C4)c4ccnnc34)cc(F)c2n1
5. Cc1cn2nc(NC(=O)c3ccc(C4CCNCC4)c4ccnnc34)cc(C)c2n1

Response:
100 to 1000 nM
100 to 1000 nM
1000 to 10000 nM
1000 to 10000 nM
1000 to 10000 nM

Hi, could you look up IC50 for each item in my list?
1. Cc1cn2cc(NC(=O)c3ccc(N4CCN[C@@H](CO)C4)c4nccnc34)cc(F)c2n1
2. CNC1CCN(c2ccc(C(=O)Nc3cc(F)c4nc(C)cn4c3)c3nc(C)ccc23)C1 (stereo not drawn) [Compound 196, 2,2,2-trifluoroacetate]
3. Cc1cn2cc(NC(=O)c3ccc(N4CCN[C@H](C)C4)c4ccnnc34)cc(F)c2n1
4. COc1cnc2c(N3C[C@@H](C)N[C@@H](C)C3)ccc(C(=O)Nc3cc(F)c4nc(C)cn4c3)c2n1
5. Cc1cn2cc(NC(=O)c3c(F)cc(N4C[C@@H](C)N[C@@H](C)C4)c4nccnc34)cc(F)c2n1
6. Cc1cn2cc(NC(=O)c3ccc(N4CCNCC4)c4ccnnc34)ncc2n1
7. CNC1CCN(c2ccc(C(=O)Nc3cc(F)c4nc(C)cn4c3)c3nnccc23)C1 (stereo not drawn)

Response:
1: 1000 to 10000 nM; 2: 1000 to 10000 nM; 3: 100 to 1000 nM; 4: 100 to 1000 nM; 5: 1000 to 10000 nM; 6: > 10000 nM; 7: 1000 to 10000 nM

Could you tell me IC50 for each of these compounds? They are listed below.
1. CCc1cc(NC(=O)c2ccc(N3CCNCC3)c3ccnnc23)nn2cc(C)nc12 [Compound 168, trifluoroacetic acid salt]
2. Cc1cn2cc(NC(=O)c3ccc(N4CC5(CNC5)C4)c4ccnnc34)cc(F)c2n1

Response:
1: > 10000 nM; 2: 100 to 1000 nM

Working through the 6 compounds below one at a time, give IC50 for each.
1. Cc1cn2cc(NC(=O)c3ccc(N4C[C@@H](C)N[C@@H](C)C4)c4ncc(N(C)C)nc34)cc(F)c2n1
2. Cc1cn2cc(NC(=O)c3ccc(N4CC(C)(C)NC(C)(C)C4)c4nccnc34)cc(F)c2n1
3. COc1cc2c(N3CCNCC3)ccc(C(=O)Nc3cc(F)c4nc(C)cn4c3)c2nn1
4. CC[C@H]1CN(c2ccc(C(=O)Nc3cc(F)c4nc(C)cn4c3)c3nnccc23)CCN1
5. Cn1cc2c(F)cc(NC(=O)c3ccc(N4CCNCC4)c4ccnnc34)cc2n1
6. Cc1cn2cc(NC(=O)c3ccc(N4CCNC5(CCOC5)C4)c4nccnc34)cc(F)c2n1 (stereo not drawn)

Response:
1. 100 to 1000 nM
2. 1000 to 10000 nM
3. 100 to 1000 nM
4. 1000 to 10000 nM
5. > 10000 nM
6. 1000 to 10000 nM

Give IC50 for all compounds that follow.
1. Cc1cn2cc(NC(=O)c3ccc(N4CCC(N(C)C)C4)c4ccnnc34)cc(F)c2n1 (stereo not drawn)
2. CCNC1CCN(c2ccc(C(=O)Nc3cc(F)c4nc(C)sc4c3)c3nnccc23)CC1

Response:
1. 1000 to 10000 nM
2. 1000 to 10000 nM

Note to self: IC50 recorded for `Cc1cn2cc(NC(=O)c3ccc(C4CCNCC4)c4ccnnc34)cc(F)c2n1` was 100 to 1000 nM
